experiment: Antiinflammatory activity in C57BL/6 mouse BMDC cells assessed as inhibition of LPS-induced TNFalpha production preincubated for 1 hr prior to LPS-stimulation measured after 18 hrs by ELISA; assay type: functional, cell-based; conditions: C57BL/6, BMDC
Reported Endpoint: IC50

get_value(item= CC(=O)CC(=O)C[C@@](C)(O)[C@H]1CC[C@H]2[C@@H]3C[C@H](O[C@@H]4O[C@H](CO)[C@@H](O)[C@H](O[C@@H]5O[C@H](C)[C@@H](O[C@@H]6O[C@H](C)[C@H](O)[C@H](O)[C@H]6O[C@@H]6O[C@H](C)[C@H](O)[C@H](O)[C@H]6O)[C@H](O)[C@H]5O[C@@H]5O[C@H](C)[C@@H](O)[C@H](O)[C@H]5O)[C@H]4O)[C@H]4C[C@@H](OS(=O)(=O)O)CC[C@]4(C)C3=CC[C@@]21C , readout=IC50) returns 1.21 µM

IC50 reading for CC(C)=CC(=O)C[C@@H](C)[C@H]1CC[C@H]2[C@@H]3C[C@H](O[C@@H]4O[C@H](CO)[C@@H](O)[C@H](O[C@@H]5O[C@H](C)[C@@H](O[C@@H]6O[C@H](C)[C@H](O)[C@H](O)[C@H]6O[C@@H]6O[C@H](C)[C@H](O)[C@H](O)[C@H]6O)[C@H](O)[C@H]5O[C@@H]5O[C@H](C)[C@@H](O)[C@H](O)[C@H]5O)[C@H]4O)[C@H]4C[C@@H](OS(=O)(=O)O)CC[C@]4(C)C3=CC[C@]12C : > 50 µM

Entry CC(=O)[C@H]1CC[C@H]2[C@@H]3C[C@H](O[C@@H]4O[C@H](C)[C@@H](O)[C@H](O[C@@H]5OC[C@@H](O[C@@H]6O[C@H](CO)[C@H](O)[C@H](O)[C@H]6O[C@@H]6O[C@H](C)[C@H](O)[C@H](O[C@@H]7O[C@@H](CO)[C@H](O)[C@H]7O)[C@H]6O)[C@H](O)[C@H]5O[C@@H]5O[C@H](C)[C@@H](O)[C@H](O)[C@H]5O)[C@H]4O)[C@H]4C[C@@H](OS(=O)(=O)O)CC[C@]4(C)C3=CC[C@]12C — recorded IC50 = > 50 µM

Lab book: IC50 of CC(C)C[C@H](O)C[C@](C)(O)[C@H]1CC[C@H]2[C@@H]3C[C@H](O[C@@H]4O[C@H](C)[C@@H](O)[C@H](O[C@@H]5OC[C@@H](O[C@@H]6O[C@H](CO)[C@H](O)[C@H](O)[C@H]6O[C@@H]6O[C@H](C)[C@H](O)[C@H](O[C@@H]7O[C@@H](CO)[C@H](O)[C@H]7O)[C@H]6O)[C@H](O)[C@H]5O[C@@H]5O[C@H](C)[C@@H](O)[C@H](O)[C@H]5O)[C@H]4O)[C@H]4C[C@@H](OS(=O)(=O)O)CC[C@]4(C)C3=CC[C@@]21C noted as > 50 µM

The compound identified as C[S+]([O-])c1ccc(-c2nc(-c3ccc(F)cc3)c(-c3ccncc3)[nH]2)cc1 (configuration not stated) registered its IC50 at 7.5 µM

New cases:
Record C/C(=C\C(=O)CC(C)C)[C@H]1CC[C@H]2[C@@H]3C[C@H](O[C@@H]4O[C@H](C)[C@@H](O)[C@H](O[C@@H]5OC[C@@H](O[C@@H]6O[C@H](CO)[C@H](O)[C@H](O)[C@H]6O[C@@H]6O[C@H](C)[C@H](O)[C@H](O[C@@H]7O[C@@H](CO)[C@H](O)[C@H]7O)[C@H]6O)[C@H](O)[C@H]5O[C@@H]5O[C@H](C)[C@@H](O)[C@H](O)[C@H]5O)[C@H]4O)[C@H]4C[C@@H](OS(=O)(=O)O)CC[C@]4(C)C3=CC[C@]12C . Reported IC50: > 50 µM

In plain terms, CC(C)CC(=O)C[C@](C)(O)[C@H]1CC[C@H]2[C@@H]3C[C@H](O[C@@H]4O[C@H](C)[C@@H](O)[C@H](O[C@@H]5OC[C@@H](O[C@@H]6O[C@H](CO)[C@H](O)[C@H](O)[C@H]6O[C@@H]6O[C@H](C)[C@H](O)[C@H](O[C@@H]7O[C@@H](CO)[C@H](O)[C@H]7O)[C@H]6O)[C@H](O)[C@H]5O[C@@H]5O[C@H](C)[C@@H](O)[C@H](O)[C@H]5O)[C@H]4O)[C@H]4C[C@@H](OS(=O)(=O)O)CC[C@]4(C)C3=CC[C@@]21C [PSILASTEROSIDE] has a documented IC50 of > 50 µM
